# System: L1210 tumor cells
# ASSAY_SUMMARY: cytotoxicity to L1210 tumor cells
# Format: cell-based
# CONDITION_LABEL: read-out: IC50, cytotoxic to L1210 tumor cells
READOUT_NAME: IC50 (µM)
Give a bare numeral; the unit µM is implied.

The value of IC50 measured for the compound Cc1cc2c(c(=O)o1)C=C1CC[C@@H](CC(C)n3cnc4c(N)ncnc43)C[C@@H]1O2 (mixture of isomers) turned out to be 30

###

# System: MC65 cells
# ASSAY_SUMMARY: protection from APP C99-induced cell death in MC65 cells
# Type: cell-based
# CONDITION_LABEL: MC65 cells conditionally expressing partial APP fusion protein, absence of tetracycline
READOUT_NAME: protection of MC65 cells from death (in words)

1) C=C(C)[C@H]1CCC2=Cc3c(cc(CC(=O)N[C@@H](CC(=O)O)C(=O)Nc4ccc([N+](=O)[O-])cc4)oc3=O)O[C@H]2C1: protected from death
2) Cc1cc2c(c(=O)o1)C=C1CC[C@H](C(C)Cn3cnc(N)c4ncnc3-4)C[C@@H]1O2 (mixture of isomers): protected from death

###

inhibition at 10 µM by entry:
# System: N/N 1003 lens epithelial cells
# ASSAY_SUMMARY: tissue culture assay: galactitol formation from galactose in lens epithelial cells (GC/MS)
# Type: cell-based
# CONDITION_LABEL: Epithelial cell; 10 uM inhibitor; 40 mM galactose media, lens epithelial cells, 48 hours; number of trials in parenthesis
All answers are understood in %, so give the number only.

1. COc1ccc2c(C(=S)N(C)CC(=O)O)cccc2c1C(F)(F)F [Tolrestat, reference compound]: 95

// assay N/N 1003 lens epithelial cells, entry O=C(O)Cc1cc2c(c(=O)o1)C=C1CCCCC1O2 (stereo not shown) [Compound 1] , inhibition at 10 µM value = 80

###

# ASSAY_SUMMARY: water solubility
READOUT_NAME: water solubility

1. O=C(O)CCc1cc2c(c(=O)o1)C=C1CCCCC1O2 (stereo not shown): water soluble
2. O=C(O)Cc1cc2c(c(=O)o1)C=C1CCCCC1O2 (stereo not shown): water soluble
3. O=C(O)C(O)Cc1cc2c(c(=O)o1)C(O)C1CCCCC1O2 (stereo not shown): water soluble

###

# TARGET_ENTITY: Human aldose reductase (AR) (Homo sapiens)
# Construct: made in house; host or cells: E. coli
# ASSAY_SUMMARY: human AR inhibition assay (enzyme assay, NADPH absorption at 340 nm)
# Assay type: biochemical
# CONDITION_LABEL: Table 3; average of three assays; read-out: IC50, Inhibition of Human Retina Aldose Reductase
READOUT_NAME: pIC50
Expect pIC50 as a plain number equal to -log10 of the molar concentration.

1. O=C(O)C(O)Cc1cc2c(c(=O)o1)C(O)C1CCCCC1O2 (centres unmarked): 7.70

Value of measured pIC50 for the entry O=C(O)Cc1cc2c(c(=O)o1)C=C1CCCCC1O2 (centres unmarked) : 8.70

###

pIC50 tested on CETP (Homo sapiens): recorded values
Sequence (P11597 18-493, species assumed): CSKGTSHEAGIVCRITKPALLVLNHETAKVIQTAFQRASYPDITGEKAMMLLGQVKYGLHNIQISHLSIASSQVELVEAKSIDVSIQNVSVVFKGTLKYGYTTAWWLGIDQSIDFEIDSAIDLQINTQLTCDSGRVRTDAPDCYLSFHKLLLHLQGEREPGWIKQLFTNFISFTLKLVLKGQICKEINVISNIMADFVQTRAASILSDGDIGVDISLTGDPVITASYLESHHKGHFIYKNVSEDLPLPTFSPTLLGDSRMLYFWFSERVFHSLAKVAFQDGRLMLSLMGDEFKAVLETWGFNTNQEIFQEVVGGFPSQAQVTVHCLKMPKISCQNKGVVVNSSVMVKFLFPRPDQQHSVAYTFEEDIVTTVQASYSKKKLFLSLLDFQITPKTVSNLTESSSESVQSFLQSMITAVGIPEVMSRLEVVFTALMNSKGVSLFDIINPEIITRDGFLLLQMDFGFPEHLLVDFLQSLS
pIC50: −log10 of the molar value.

// known answers, use as guide
1. C=C(C)[C@H]1CCC2=Cc3c(cc(CC(=O)N[C@@H](CC(=O)O)C(=O)Nc4ccc([N+](=O)[O-])cc4)oc3=O)O[C@H]2C1: < 3.74
2. Cc1cc2c(c(=O)o1)C=C1CC[C@H](C(C)Cn3cnc(N)c4ncnc3-4)C[C@@H]1O2 (mixture of isomers): < 3.60

Entry CC(CO)[C@H]1CCC2=Cc3c(cc(CC(=O)OCc4ccccc4)oc3=O)O[C@H]2C1 (mixture of isomers) , CETP (Homo sapiens) data, pIC50 value: < 4.00
